Target: human cloned 5-HT6 receptors (Homo sapiens)
Construct: expressed in transfected cells; host or cells: Hela cells
Assay: 5-HT6 binding affinity, [3H]-LSD displacement on membranes of Hela cells expressing human cloned 5-HT6 receptors
Settings: [3H]-LSD 3.0 nM, Hela cell membranes, 120 min at room temperature; read-out: 5-HT6 Binding Ki
Counter-ions that a name gives are not always drawn.
measurement.label: pKi
Schema: pKi number; meaning minus log10 of the concentration expressed in molar units.

For the compound NCCn1cc(S(=O)(=O)c2cccc(C(F)(F)F)c2)c2cccnc21 , what pKi is on record?
8.70

For the compound CN(C)CCn1cc(S(=O)(=O)c2ccccc2)c2nc(Cl)ccc21 , what pKi is on record?
6.67

For the compound COc1ccc2c(S(=O)(=O)c3ccccc3)cn(CCN(C)C)c2n1 , what pKi is on record?
7.41

For the compound CN(C)CCn1cc(S(=O)(=O)c2c(Cl)cccc2Cl)c2cccnc21 , what pKi is on record?
8.05

For the compound CN(C)CCn1cc(S(=O)(=O)c2c(Cl)nc3sccn23)c2cccnc21 , what pKi is on record?
8.70

For the compound O=S(=O)(c1cccc(F)c1)c1cn(CCN2CCOCC2)c2ncccc12 , what pKi is on record?
6.39

For the compound CN(C)CCn1cc(S(=O)(=O)c2cccc(F)c2)c2ncccc21 [Example 77, Dihydrochloride] , what pKi is on record?
6.70

For the compound Cc1c(S(=O)(=O)c2ccc3ccccc3c2)c2cccnc2n1CCN(C)C , what pKi is on record?
8.00

For the compound CN(C)CCn1cc(S(=O)(=O)c2ccccc2)c2ccc(Br)nc21 , what pKi is on record?
7.39

For the compound O=S(=O)(c1cccc(F)c1)c1cn(CCN2CCCCC2)c2ncccc12 , what pKi is on record?
6.80

For the compound CN(C)CCn1cc(S(=O)(=O)c2cc(Cl)ccc2Cl)c2cccnc21 , what pKi is on record?
7.92

For the compound COc1ccc2c(n1)c(S(=O)(=O)c1cccc3ccccc13)cn2CCN(C)C , what pKi is on record?
8.70

For the compound CN(C)CCn1cc(S(=O)(=O)c2ccccc2C(F)(F)F)c2cccnc21 , what pKi is on record?
7.96

For the compound NCCn1cc(S(=O)(=O)c2cccs2)c2cccnc21 , what pKi is on record?
8.05

For the compound Cc1ccc(S(=O)(=O)c2cn(CCN)c3ncccc23)cc1 [Example 7, dihydrochloride] , what pKi is on record?
8.05

For the compound Cc1cccc(S(=O)(=O)c2cn(CCN(C)C)c3ncccc23)c1 , what pKi is on record?
8.00

For the compound CNCCn1cc(S(=O)(=O)c2cccc(C)c2)c2cccnc21 , what pKi is on record?
9.00

For the compound COc1ccc2c(n1)c(S(=O)(=O)c1ccc(Br)cc1)cn2CCN(C)C , what pKi is on record?
8.40

For the compound CCN(CC)CCn1cc(S(=O)(=O)c2cccc(Cl)c2)c2cccnc21 , what pKi is on record?
7.70

For the compound CNCCn1cc(S(=O)(=O)c2c(Cl)nc3sccn23)c2cccnc21 , what pKi is on record?
9.00

For the compound CN(C)CCn1cc(S(=O)(=O)c2cccc(Cl)c2)c2cccnc21 , what pKi is on record?
8.70

For the compound Cc1c(S(=O)(=O)c2cn(CCN(C)C)c3ncccc23)sc2ccc(Cl)cc12 , what pKi is on record?
6.99

For the compound CN(C)CCn1cc(S(=O)(=O)c2ccc(F)cc2)c2cccnc21 , what pKi is on record?
7.30

For the compound CN(C)CCn1cc(S(=O)(=O)c2cccs2)c2cccnc21 , what pKi is on record?
7.82

For the compound O=S(=O)(c1cn(CCNCc2ccccc2)c2ncccc12)c1c(Cl)nc2sccn12 , what pKi is on record?
8.05

For the compound NCCn1cc(S(=O)(=O)c2ccccc2C(F)(F)F)c2cccnc21 , what pKi is on record?
8.70

For the compound COc1ccc2c(n1)c(S(=O)(=O)c1cccc(F)c1)cn2CCN(C)C , what pKi is on record?
7.96

For the compound NCCn1cc(S(=O)(=O)c2cccc3ccccc23)c2cccnc21 , what pKi is on record?
8.70

For the compound O=S(=O)(c1cccc(Cl)c1)c1cn(CCN2CCCC2)c2ncccc12 , what pKi is on record?
7.35

For the compound NCCn1cc(S(=O)(=O)c2cc(Cl)cc(Cl)c2)c2cccnc21 , what pKi is on record?
8.52

For the compound O=S(=O)(c1cccc(F)c1)c1cn(CCN2CCCC2)c2ncccc12 , what pKi is on record?
7.06

For the compound NCCn1cc(S(=O)(=O)c2ccccc2)c2cccnc21 [Example 5, dihydrochloride] , what pKi is on record?
8.22

For the compound O=S(=O)(c1cn(CCN(Cc2ccccc2)Cc2ccccc2)c2ncccc12)c1c(Cl)nc2sccn12 , what pKi is on record?
6.67

For the compound CC(CN)n1cc(S(=O)(=O)c2ccccc2)c2cccnc21 (centres unmarked) , what pKi is on record?
7.85

For the compound CN(C)CCn1cc(S(=O)(=O)c2cccc(C#N)c2)c2cccnc21 , what pKi is on record?
7.20

For the compound Cc1c(S(=O)(=O)c2ccccc2)c2cccnc2n1CCN , what pKi is on record?
8.30

For the compound NCCn1cc(S(=O)(=O)c2ccc3ccccc3c2)c2cccnc21 , what pKi is on record?
7.62

For the compound CCNCCn1cc(S(=O)(=O)c2cccc(Cl)c2)c2cccnc21 , what pKi is on record?
8.52

* * *

Target: human cloned 5-HT6 receptors (Homo sapiens, UniProt P50406)
Construct: expressed in transfected cells; host or cells: Hela cells
Sequence (P50406 whole entry): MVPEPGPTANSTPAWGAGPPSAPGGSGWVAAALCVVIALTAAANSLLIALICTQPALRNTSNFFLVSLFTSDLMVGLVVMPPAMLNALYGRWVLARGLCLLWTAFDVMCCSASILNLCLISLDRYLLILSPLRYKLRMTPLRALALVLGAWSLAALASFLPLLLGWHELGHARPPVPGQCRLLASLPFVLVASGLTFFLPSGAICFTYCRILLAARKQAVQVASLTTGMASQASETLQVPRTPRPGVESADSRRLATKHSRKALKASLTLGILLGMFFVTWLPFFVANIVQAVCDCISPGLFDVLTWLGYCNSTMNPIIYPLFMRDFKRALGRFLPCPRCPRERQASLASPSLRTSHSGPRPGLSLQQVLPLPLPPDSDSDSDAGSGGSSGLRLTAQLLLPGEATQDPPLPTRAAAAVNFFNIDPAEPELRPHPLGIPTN
Test: 5-HT6 binding affinity, [3H]-LSD displacement on membranes of Hela cells expressing human cloned 5-HT6 receptors
Structures can show the parent of a compound that is named as a salt.
measurement.label: Ki (nM)
Value expressed in nM; do not type the unit.

For the compound NCCn1cc(S(=O)(=O)c2cccc(Cl)c2)c2cccnc21 [Example 12, dihydrochloride] , what Ki is on record?
20
